Entries and their pIC50 values follow.
targetUnderTest: Geranylgeranyl transferase type-1 subunit beta (Homo sapiens)
Sequence (P53609 whole entry): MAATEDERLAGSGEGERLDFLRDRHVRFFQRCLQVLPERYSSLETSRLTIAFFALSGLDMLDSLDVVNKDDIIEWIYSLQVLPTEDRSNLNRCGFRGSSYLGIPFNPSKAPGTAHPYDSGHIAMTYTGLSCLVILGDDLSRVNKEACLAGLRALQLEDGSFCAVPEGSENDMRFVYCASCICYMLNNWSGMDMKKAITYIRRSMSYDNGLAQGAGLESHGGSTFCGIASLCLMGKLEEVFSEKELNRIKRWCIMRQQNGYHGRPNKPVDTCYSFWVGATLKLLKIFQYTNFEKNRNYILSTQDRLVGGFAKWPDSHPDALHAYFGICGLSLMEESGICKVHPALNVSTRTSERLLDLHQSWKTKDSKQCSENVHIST
assayMethodText: Inhibitory concentration of geranylgeranyl-protein transferase type I
pIC50: −log10 of the molar value.

Look over these answered cases.
cpdSmiles	pIC50
N#Cc1ccc(Cn2cncc2CN[C@H]2CCN(C(=O)c3cccnc3N)C2)cc1	< 4.30
N#Cc1ccc(Cn2cncc2CN(Cc2cccnc2)[C@H]2CCN(Cc3ccccc3)C2=O)cc1	< 4.30
N#Cc1ccc(Cn2cncc2CN[C@H]2CCN(c3cccc4ncccc34)C2=O)cc1	< 4.70
N#Cc1ccc(Cn2cncc2CN(CCCN)[C@H]2CCN(Cc3ccccc3)C2=O)cc1	< 4.30
N#Cc1ccc(Cn2cncc2CN(CCCN)[C@H]2CCN(Cc3cccc(Cl)c3)C2=O)cc1	< 4.30
COc1ncccc1C(=O)N1CC[C@H](NCc2cncn2Cc2ccc(C#N)cc2)C1	< 4.30

Asked: Please give the measured pIC50 for this compound: CCSc1ncccc1C(=O)N1CC[C@H](NCc2cncn2Cc2ccc(C#N)cc2)C1
Given back: ~5.29

All values here come from ChEMBL document CHEMBL1134579.
